# TEST_SYSTEM: FLT3 (Homo sapiens (Human), UniProt P36888)
# Sequence (P36888 27-993): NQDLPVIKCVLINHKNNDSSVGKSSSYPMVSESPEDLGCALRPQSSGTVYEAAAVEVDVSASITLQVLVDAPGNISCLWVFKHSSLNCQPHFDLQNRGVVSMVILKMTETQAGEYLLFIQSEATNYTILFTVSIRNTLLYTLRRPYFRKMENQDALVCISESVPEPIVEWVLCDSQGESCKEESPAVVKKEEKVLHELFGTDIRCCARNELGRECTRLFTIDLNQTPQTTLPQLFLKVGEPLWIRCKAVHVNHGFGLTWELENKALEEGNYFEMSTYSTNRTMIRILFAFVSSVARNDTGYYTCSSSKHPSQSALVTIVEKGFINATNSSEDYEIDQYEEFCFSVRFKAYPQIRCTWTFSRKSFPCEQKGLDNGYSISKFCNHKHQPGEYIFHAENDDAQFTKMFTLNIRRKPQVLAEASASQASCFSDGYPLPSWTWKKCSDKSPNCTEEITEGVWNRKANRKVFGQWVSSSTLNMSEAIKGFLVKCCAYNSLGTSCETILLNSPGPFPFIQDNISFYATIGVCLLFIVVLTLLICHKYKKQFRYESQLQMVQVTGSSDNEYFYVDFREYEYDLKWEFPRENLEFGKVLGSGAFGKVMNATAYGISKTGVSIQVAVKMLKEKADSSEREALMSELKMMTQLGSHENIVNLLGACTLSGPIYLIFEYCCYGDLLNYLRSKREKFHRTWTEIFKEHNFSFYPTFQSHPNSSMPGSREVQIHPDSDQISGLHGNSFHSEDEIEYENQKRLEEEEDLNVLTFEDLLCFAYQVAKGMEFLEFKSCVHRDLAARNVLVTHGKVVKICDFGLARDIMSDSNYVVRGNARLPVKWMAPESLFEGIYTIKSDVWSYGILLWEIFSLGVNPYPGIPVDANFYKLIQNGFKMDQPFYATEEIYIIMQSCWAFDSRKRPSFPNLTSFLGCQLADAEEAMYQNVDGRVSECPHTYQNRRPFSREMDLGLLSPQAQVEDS
pIC50: −log10 of the molar value.
REPORTED_ENDPOINT: pIC50

{"columns": ["COMPOUND", "TEST_SYSTEM", "pIC50"],
 "data": [
  ["COc1ccc2c(c1)[C@]1(C[C@H]1c1ccc3c(-c4ccc(N5CC[C@H](N(C)C)C5)cc4)n[nH]c3c1)C(=O)N2 [Example A128, 2,2,2-trifluoroacetate]", "FLT3 (Homo sapiens (Human), UniProt P36888)", "6.00 to 7.00"],
  ["COc1ccc2c(c1)[C@]1(C[C@H]1c1ccc3c(-c4ccc(N5CCN(C(C)C)CC5)cc4)n[nH]c3c1)C(=O)N2 [Example A97, 2,2,2-trifluoroacetate]", "FLT3 (Homo sapiens (Human), UniProt P36888)", "> 7.00"],
  ["CCc1ccc2c(c1)[C@]1(C[C@H]1c1ccc3c(-c4cccc(CN5CCOCC5)c4)n[nH]c3c1)C(=O)N2 (relative stereo) [Example A141, 2,2,2-trifluoroacetate]", "FLT3 (Homo sapiens (Human), UniProt P36888)", "< 6.00"]
]}

COc1ccc2c(c1)[C@]1(C[C@H]1c1ccc3c(-c4ccc(N(C)CCN(C)C)cc4)n[nH]c3c1)C(=O)N2 [Example A129, 2,2,2-trifluoroacetate] has a reported pIC50 of 6.00 to 7.00

CCN1CCN(c2ccc(-c3n[nH]c4cc([C@@H]5C[C@@]56C(=O)Nc5ccc(OC)cc56)ccc34)cc2)CC1 [Example A99, 2,2,2-trifluoroacetate] has a reported pIC50 of > 7.00
